target: human HSL (Homo sapiens, UniProt Q05469); construct: overlapping PCR to generate a full length human HSL ORF with a 3′-His6 tag; His6 (C); assay: Human Hormone-Sensitive Lipase (HSL) enzyme inhibition assay (colorimetric, DMPT substrate); conditions: human full length HSL-His6, 2,3-dimercapto-1-propanol tributyrate substrate, 37° C. 20 minutes, absorbance at 405 nm; read-out: HSL hum IC50
Sequence (Q05469 whole entry): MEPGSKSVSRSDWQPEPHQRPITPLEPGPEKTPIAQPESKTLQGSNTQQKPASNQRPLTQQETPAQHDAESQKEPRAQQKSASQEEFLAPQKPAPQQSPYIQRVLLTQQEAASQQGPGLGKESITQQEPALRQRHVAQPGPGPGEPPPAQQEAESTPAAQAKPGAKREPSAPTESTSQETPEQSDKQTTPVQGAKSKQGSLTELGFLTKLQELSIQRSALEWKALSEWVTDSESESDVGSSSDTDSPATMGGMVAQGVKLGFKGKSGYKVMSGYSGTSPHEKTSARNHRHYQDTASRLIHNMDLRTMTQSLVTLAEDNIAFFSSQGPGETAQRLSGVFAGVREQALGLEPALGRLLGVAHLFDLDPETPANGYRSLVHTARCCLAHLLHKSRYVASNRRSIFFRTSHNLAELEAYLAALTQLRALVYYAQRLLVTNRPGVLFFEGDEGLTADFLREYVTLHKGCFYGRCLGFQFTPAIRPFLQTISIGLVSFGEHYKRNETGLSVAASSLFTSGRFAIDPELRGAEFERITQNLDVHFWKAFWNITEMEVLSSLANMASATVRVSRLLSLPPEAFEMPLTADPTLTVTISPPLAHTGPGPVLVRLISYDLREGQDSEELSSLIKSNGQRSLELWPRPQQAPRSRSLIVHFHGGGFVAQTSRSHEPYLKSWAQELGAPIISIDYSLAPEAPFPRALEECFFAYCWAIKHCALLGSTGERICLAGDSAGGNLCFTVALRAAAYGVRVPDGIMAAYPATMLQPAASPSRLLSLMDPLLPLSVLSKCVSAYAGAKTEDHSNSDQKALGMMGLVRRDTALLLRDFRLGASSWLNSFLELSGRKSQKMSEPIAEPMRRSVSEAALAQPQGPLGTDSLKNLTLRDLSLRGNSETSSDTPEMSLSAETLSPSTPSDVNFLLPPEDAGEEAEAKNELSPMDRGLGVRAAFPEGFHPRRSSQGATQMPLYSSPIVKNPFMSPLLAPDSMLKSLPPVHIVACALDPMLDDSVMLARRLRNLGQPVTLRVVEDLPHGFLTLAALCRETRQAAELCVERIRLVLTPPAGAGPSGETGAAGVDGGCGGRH
Label y when IC50 is strictly below 80 nM; otherwise label n.

Previously resolved entries follow.
C[C@H](Oc1ccc(N2CCC3(CCN(CC(O)c4c(F)cccc4Cl)CC3)C2=O)cn1)C(F)(F)F (some centres unmarked) | y
CC(c1ccccc1)N1CCC2(CCN(c3ccc(C4CC4)cc3)C2=O)CC1 (centres unmarked) | y
O=C1N(c2ccc(C3CC3)cc2)CCC12CCN(CC(O)c1ccccc1)CC2 (centres unmarked) | y

Lookup: Hello, I'm reviewing records and need to know if IC50 of O=C1N(c2ccc(C3CC3)cc2)CCC12CCN(C[C@H](O)c1ccccc1)CC2 is below 80 nM. Could you check?
Found: y

Lookup: # iterate: CC(c1cccc(C(F)(F)F)c1)N1CCC2(CCN(c3ccc(C4CC4)cc3)C2=O)CC1 (centres unmarked)
Found: n

Lookup: # iterate: CCc1ccc(N2CCC3(CCN(CC(=O)c4ccc(Cl)cc4Cl)CC3)C2=O)cc1
Found: y

Lookup: # iterate: CCCCNC(=O)CN1CCC2(CC1)CCN(c1ccc(C3CC3)cc1)C2=O
Found: n

* * *

Target: human HSL (Homo sapiens)
Construct: overlapping PCR to generate a full length human HSL ORF with a 3′-His6 tag; His6 (C)
Experiment: Human Hormone-Sensitive Lipase (HSL) enzyme inhibition assay (colorimetric, DMPT substrate)
Settings: human full length HSL-His6, 2,3-dimercapto-1-propanol tributyrate substrate, 37° C. 20 minutes, absorbance at 405 nm; read-out: HSL hum IC50
Method: 1) Cloning: cDNA was prepared from commercial human brain polyA+ RNA and used as a template in overlapping PCR to generate a full length human HSL ORF with a 3′-His6 tag. […] Cells were thawed. […] The protein concentration was calculated from absorbance at 280 nm, using 280=0.67 cm-1 mg-1. […] HSL enzyme activity was measured by a colorimetric assay using 2,3-dimercapto-1-propanol tributyrate (Aldrich, St. Louis, Mo.) as a substrate. […]
propertyMeasured: pIC50
Scale note: pIC50 = -log10(concentration in M).

C[C@H](Oc1ccc(N2CCC3(CCN(CC(O)c4ccc(Cl)cc4Cl)CC3)C2=O)cn1)C(F)(F)F (some centres unmarked) | 7.37

Lookup: // lookup pIC50 for O=C1N(c2ccc(C3CC3)cc2)CCC12CCN(CCCc1ccccc1)CC2
Found: 6.62

Lookup: # iterate: O=C(CN1CCC2(CC1)CCN(c1ccc(C3CC3)cc1)C2=O)N1CCCC1
Found: 6.66

Lookup: # iterate: C[C@H](Oc1ccc(N2CCC3(CCN(CC(O)c4ccc(Cl)cc4Cl)CC3)C2=O)cc1)C(F)(F)F (some centres unmarked)
Found: 7.70

* * *

target: human HSL (Homo sapiens, UniProt Q05469); construct: overlapping PCR to generate a full length human HSL ORF with a 3′-His6 tag; His6 (C); experiment: Human Hormone-Sensitive Lipase (HSL) enzyme inhibition assay (colorimetric, DMPT substrate); conditions: human full length HSL-His6, 2,3-dimercapto-1-propanol tributyrate substrate, 37° C. 20 minutes, absorbance at 405 nm; read-out: HSL hum IC50
propertyMeasured: pIC50
Scale note: pIC50 = -log10(concentration in M).

Please review the following examples before continuing.
O=C1N(c2ccc(C3CC3)cc2)CCC12CCN(CC(O)c1ccc(Cl)cc1)CC2 (stereo not shown) [Example 24] | 7.10
CCC(C(=O)Nc1ccc(F)cc1)N1CCC2(CCN(c3ccc(C4CC4)cc3)C2=O)CC1 (stereo not shown) [Example 26] | 7.30
O=C1N(c2ccc(OCC(F)(F)F)cc2)CCC12CCN(CC(O)c1ccc(Cl)cc1Cl)CC2 (stereo not shown) [Example 44] | 7.59

Lookup: // lookup pIC50 for C[C@H](Oc1ccc(N2CCC3(CCN(CC(O)c4c(F)cccc4Cl)CC3)C2=O)cc1)C(F)(F)F (stereo partly shown) [Example 54]
Found: 7.54

Values were extracted from patent US8389539B2.
